Here, each record is paired with measured pKd data.
Molecular target: T1, EsCas13d, nuclease-dead (Eubacterium siraeum, UniProt B0MS50, R295A;H300A;R849A;H854A)
T1 sequence: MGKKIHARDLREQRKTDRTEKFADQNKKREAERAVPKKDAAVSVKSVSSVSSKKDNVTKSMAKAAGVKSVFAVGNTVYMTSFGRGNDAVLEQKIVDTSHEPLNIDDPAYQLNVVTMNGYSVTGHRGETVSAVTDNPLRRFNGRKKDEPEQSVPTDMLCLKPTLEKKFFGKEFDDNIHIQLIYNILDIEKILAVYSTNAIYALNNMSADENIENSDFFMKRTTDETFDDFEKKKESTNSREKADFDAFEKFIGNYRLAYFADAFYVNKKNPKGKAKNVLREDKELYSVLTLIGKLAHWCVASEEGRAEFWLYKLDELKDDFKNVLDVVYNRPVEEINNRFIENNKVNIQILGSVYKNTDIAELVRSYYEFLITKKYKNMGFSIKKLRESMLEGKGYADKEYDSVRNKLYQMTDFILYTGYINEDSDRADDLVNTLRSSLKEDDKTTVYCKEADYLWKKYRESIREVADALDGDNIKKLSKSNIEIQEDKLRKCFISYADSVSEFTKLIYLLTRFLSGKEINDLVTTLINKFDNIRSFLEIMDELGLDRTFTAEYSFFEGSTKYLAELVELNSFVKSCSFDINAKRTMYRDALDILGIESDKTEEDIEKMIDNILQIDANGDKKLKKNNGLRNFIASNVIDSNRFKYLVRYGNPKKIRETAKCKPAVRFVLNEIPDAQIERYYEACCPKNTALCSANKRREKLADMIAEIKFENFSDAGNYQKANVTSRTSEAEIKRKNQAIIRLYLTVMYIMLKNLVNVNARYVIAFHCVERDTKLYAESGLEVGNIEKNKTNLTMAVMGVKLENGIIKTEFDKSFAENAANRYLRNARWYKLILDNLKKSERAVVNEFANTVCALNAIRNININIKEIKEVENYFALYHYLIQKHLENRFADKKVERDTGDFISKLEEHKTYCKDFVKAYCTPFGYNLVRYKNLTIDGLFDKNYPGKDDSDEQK
Experiment: crRNA (strand 1, pre-loaded); Mg2+; 40 mM Tris-HCl pH 7.5, 150 mM NaCl, 6 mM MgCl2, 1 mM DTT, 0.1% Tween-20, 0.2 mg/ml BSA; 25 C; 10 min per concentration, then washed
Conditions: tags: His6-TwinStrep-SUMO cleaved; N-terminal SNAP kept (SNAP-Surface 488); label: 3' end held by stalled T7 RNA polymerase
The read-out pKd is expressed as -log10 of concentration in moles per litre.

# annotated cases, reported pKd shown
{"columns": ["Binder", "Test Value"],
 "data": [
  ["target 3 insU 3' of 6,insU 3' of 6 (mixed) RNA 1: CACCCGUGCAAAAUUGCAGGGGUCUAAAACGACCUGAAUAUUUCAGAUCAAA RNA 2: GGGAAUGGAUCCACAUCUACGAAUUCGUUUUUGAUCUGAAAUAUUCUUAGGUCUGCAGAUCGGAAGAGCACACGU", 7.76],
  ["target 3 C1A,G4U (mixed) RNA 1: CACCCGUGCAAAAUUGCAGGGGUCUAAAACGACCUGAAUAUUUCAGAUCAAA RNA 2: GGGAAUGGAUCCACAUCUACGAAUUCGUUUUUGAUCUGAAAUAUUCAUGUAUGCAGAUCGGAAGAGCACACGU", 7.76]
]}

**Q:** Fill in: pKd of target 1 insU 3' of 22,insC 3' of 13 (mixed) RNA 1: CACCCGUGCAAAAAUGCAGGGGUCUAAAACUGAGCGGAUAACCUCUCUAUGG RNA 2: GGGAAUGGAUCCACAUCUACGAAUUCGUACUCAUAGAGAGCGUUAUCCGCUCACCGAGAUCGGAAGAGCACACGU is ___
**A:** 7.06
